// provenance: paper PMC4747340

Target: ER-β (Homo sapiens)
Sequence (Q92731 whole entry): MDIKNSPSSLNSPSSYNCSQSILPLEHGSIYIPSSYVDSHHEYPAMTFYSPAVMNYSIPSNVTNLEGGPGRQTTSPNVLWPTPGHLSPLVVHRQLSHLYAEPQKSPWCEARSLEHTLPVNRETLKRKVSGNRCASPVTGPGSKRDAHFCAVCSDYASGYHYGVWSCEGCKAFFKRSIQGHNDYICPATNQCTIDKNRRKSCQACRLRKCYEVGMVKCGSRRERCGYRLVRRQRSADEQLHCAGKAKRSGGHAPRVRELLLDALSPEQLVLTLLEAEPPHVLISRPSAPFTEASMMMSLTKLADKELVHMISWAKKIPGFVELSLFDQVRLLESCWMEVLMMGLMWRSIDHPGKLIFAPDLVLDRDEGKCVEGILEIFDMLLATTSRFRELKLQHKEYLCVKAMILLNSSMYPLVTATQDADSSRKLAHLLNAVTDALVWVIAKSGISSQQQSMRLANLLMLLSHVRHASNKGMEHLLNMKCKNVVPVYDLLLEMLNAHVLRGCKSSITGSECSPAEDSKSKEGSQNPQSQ
Assay: E2-stimulated ER-β activity, ERE-TK-Luc reporter in transfected DU-145 cells
Conditions: DU-145 transfected with ER-β, E2 10 nM, 24 hr; read-out: IC50 for inhibition of ER-β activity
measurement_type: IC50 (nM)
Response body: numeric value in nM, unit text excluded.

Item: O=C(CC(c1ccccc1)N1CCCCC1)c1ccccc1 (stereo not shown) Test system: ER-β (Homo sapiens) Read-out: IC50 Value: ?
2000

====

Biological target: ER Ile386Ala+Leu387Ala (Homo sapiens, UniProt P03372, I386A/L387A)
Construct: expressed in transfected cells; host or cells: MDA-MB-231
Experiment: ER mutation analysis, ERE-TK-Luc reporter in transfected MDA-MB-231 cells
Format: cell-based
Settings: MDA-MB-231 transfected with mutant ER, E2 10 nM, 24 hr
measurement_type: IC50

>>> observed("Oc1cc(CN2COc3ccccc32)c(O)cc1CNC1CCCCC1 [A7, reference compound]")
"2.5 µM"

Please turn your attention to the following entry.
Please look up its IC50: O=C(CC(c1ccccc1)N1CCCCC1)c1ccccc1 (centres unmarked)
> 15 µM

====

Target: ER Leu327Ala (Homo sapiens, UniProt P03372, L327A)
Construct: expressed in transfected cells; host or cells: MDA-MB-231
Assay: ER mutation analysis, ERE-TK-Luc reporter in transfected MDA-MB-231 cells
Format: cell-based
Settings: MDA-MB-231 transfected with mutant ER, E2 10 nM, 24 hr
Readings of IC50 for the listed compounds
Reply with the number, then its unit.

>>> observed("O=C(CC(c1ccccc1)N1CCCCC1)c1ccccc1 (centres unmarked)")
"0.9 µM"

Tell me the measured IC50 of Oc1cc(CN2COc3ccccc32)c(O)cc1CNC1CCCCC1 [A7, reference compound] , please.
12 µM

====

Biological target: ER Pro325Ala (Homo sapiens, UniProt P03372, P325A)
Construct: expressed in transfected cells; host or cells: MDA-MB-231
Test: ER mutation analysis, ERE-TK-Luc reporter in transfected MDA-MB-231 cells
Format: cell-based
Details: MDA-MB-231 transfected with mutant ER, E2 10 nM, 24 hr
Catalogue of IC50 values
Your answer is read as µM, so omit the unit and give the number.

>>> observed("O=C(CC(c1ccccc1)N1CCCCC1)c1ccccc1 (centres unmarked)")
0.9

Okay, now this molecule:
Would you kindly share the measured IC50 for Oc1cc(CN2COc3ccccc32)c(O)cc1CNC1CCCCC1 [A7, reference compound] ?
7

====

// reported IC50 per item
Target: ER His356Ala (Homo sapiens, UniProt P03372, H356A)
Construct: expressed in transfected cells; host or cells: MDA-MB-231
Assay: ER mutation analysis, ERE-TK-Luc reporter in transfected MDA-MB-231 cells
Assay type: cell-based
Conditions: MDA-MB-231 transfected with mutant ER, E2 10 nM, 24 hr
API: value field is a number in µM; no unit string.

>>> observed("O=C(CC(c1ccccc1)N1CCCCC1)c1ccccc1 (centres unmarked) [35446-L/1]")
0.8

Moving on to the next compound.
I'd like to know its IC50. The compound in question is Oc1cc(CN2COc3ccccc32)c(O)cc1CNC1CCCCC1 [A7, reference compound]
11

====

Target: ER Glu353Ala (Homo sapiens, UniProt P03372, E353A)
Construct: expressed in transfected cells; host or cells: MDA-MB-231
Experiment: ER mutation analysis, ERE-TK-Luc reporter in transfected MDA-MB-231 cells
Format: cell-based
Conditions: MDA-MB-231 transfected with mutant ER, E2 10 nM, 24 hr
measurement_type: IC50 (µM)
Write the answer as a number in µM, unit excluded.

Need IC50, item Oc1cc(CN2COc3ccccc32)c(O)cc1CNC1CCCCC1 [A7, reference compound]
11

====

Biological target: ER Arg394Ala (Homo sapiens, UniProt P03372, R394A)
Construct: expressed in transfected cells; host or cells: MDA-MB-231
Experiment: ER mutation analysis, ERE-TK-Luc reporter in transfected MDA-MB-231 cells
Format: cell-based
Details: MDA-MB-231 transfected with mutant ER, E2 10 nM, 24 hr
measurement_type: IC50 (µM)
Express your answer in µM, writing the number without its unit.

I would be grateful if you could share the reported IC50 for Oc1cc(CN2COc3ccccc32)c(O)cc1CNC1CCCCC1 [A7, reference compound] .
12

====

Molecular target: ER Ile386Ala (Homo sapiens, UniProt P03372, I386A)
Construct: expressed in transfected cells; host or cells: MDA-MB-231
Sequence (P03372 1-595 I386A): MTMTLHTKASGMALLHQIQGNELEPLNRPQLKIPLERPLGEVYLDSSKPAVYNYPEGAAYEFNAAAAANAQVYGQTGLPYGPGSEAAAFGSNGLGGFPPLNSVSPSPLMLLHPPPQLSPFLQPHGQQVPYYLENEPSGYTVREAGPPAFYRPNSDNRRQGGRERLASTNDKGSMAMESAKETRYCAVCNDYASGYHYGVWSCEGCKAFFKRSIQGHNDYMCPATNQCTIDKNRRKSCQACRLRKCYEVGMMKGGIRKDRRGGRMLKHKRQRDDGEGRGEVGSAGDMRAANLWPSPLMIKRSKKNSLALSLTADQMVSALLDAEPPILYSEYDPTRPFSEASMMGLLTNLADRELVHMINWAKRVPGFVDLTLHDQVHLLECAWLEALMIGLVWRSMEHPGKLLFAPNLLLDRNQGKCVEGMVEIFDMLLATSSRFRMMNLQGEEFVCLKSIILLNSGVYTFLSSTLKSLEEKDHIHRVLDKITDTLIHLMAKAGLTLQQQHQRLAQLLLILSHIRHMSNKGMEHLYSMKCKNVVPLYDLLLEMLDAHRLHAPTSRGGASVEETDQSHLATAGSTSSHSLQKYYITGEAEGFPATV
Assay: ER mutation analysis, ERE-TK-Luc reporter in transfected MDA-MB-231 cells
Type: cell-based
Conditions: MDA-MB-231 transfected with mutant ER, E2 10 nM, 24 hr
measurement_type: IC50 (µM)
Give the value in µM but do not write µM after it.

>>> observed("Oc1cc(CN2COc3ccccc32)c(O)cc1CNC1CCCCC1 [A7, reference compound]")
2.5

# next compound below
// lookup IC50 for O=C(CC(c1ccccc1)N1CCCCC1)c1ccccc1 (centres unmarked)
4

====

Molecular target: UniProtKB P03372
Assay: ER activity, ERE-TK-Luc reporter, in MCF-7 cells
Type: cell-based
Design: MCF-7 cells in 24-well dishes were transfected overnight with the ERE-TK-Luc reporter plasmid; endogenous in cells; host or cells: MCF-7
Conditions: MCF-7, E2 10 nM, 24 hr; read-out: IC50 for inhibition of E2-stimulated ER activity
In this section we review reported IC50 values for a set of molecules.

Worked examples, 4 molecules total:
>>> observed("Sc1ccc2ccccc2c1CNCc1ccccc1")
"≤ 1000 nM"
>>> observed("CC(C)=CC1C(COC(=O)c2cc3c(cc2Cl)OCO3)C1(C)C (centres unmarked)")
"≤ 1000 nM"
>>> observed("OCC(CCc1c[nH]c2ccccc12)c1c[nH]c2ccccc12 (centres unmarked)")
"≤ 1000 nM"
>>> observed("c1ccc2c(c1)-c1ccccc1C2N1CC2CCC(CC2)C1")
"≤ 1000 nM"

Now examine the next entry.
Item under review: O=C(c1cc(Br)ccc1O)c1cc(Br)ccc1O . Reported IC50?
≤ 1000 nM

====

Biological target: ER Trp393Ala (Homo sapiens, UniProt P03372, W393A)
Construct: expressed in transfected cells; host or cells: MDA-MB-231
Test: ER mutation analysis, ERE-TK-Luc reporter in transfected MDA-MB-231 cells
Type: cell-based
Details: MDA-MB-231 transfected with mutant ER, E2 10 nM, 24 hr
measurement_type: IC50 (µM)
// units = µM; emit number, no label

For Oc1cc(CN2COc3ccccc32)c(O)cc1CNC1CCCCC1 [A7, reference compound] , what is its reported IC50?
12

====

Molecular target: ER Lys449Ala (Homo sapiens, UniProt P03372, K449A)
Construct: expressed in transfected cells; host or cells: MDA-MB-231
Test: ER mutation analysis, ERE-TK-Luc reporter in transfected MDA-MB-231 cells
Type: cell-based
Conditions: MDA-MB-231 transfected with mutant ER, E2 10 nM, 24 hr
measurement_type: IC50 (µM)
Numbers only here, please. The scale is µM.

What value of IC50 has been reported for the following molecule? Oc1cc(CN2COc3ccccc32)c(O)cc1CNC1CCCCC1 [A7, reference compound]
2

====

Target: ER Prol325Ala (Homo sapiens, UniProt P03372, P325A)
Construct: expressed in transfected cells; host or cells: MDA-MB-231
Assay: ER mutation analysis, ERE-TK-Luc reporter in transfected MDA-MB-231 cells
Type: cell-based
Settings: MDA-MB-231 transfected with mutant ER, E2 10 nM, 24 hr; second row for residue 325
measurement_type: IC50 (µM)
The answer is to be given in µM; state only the numeric part.

Name the reported IC50 value associated with the compound Oc1cc(CN2COc3ccccc32)c(O)cc1CNC1CCCCC1 [A7, reference compound]
7
